Parameter: C: Timing-sequence response and specificity score. Scope: all listed entries.
System: Balb/c mice
Test: Polypeptide chip-based vaccine immunogenicity scoring system
Assay type: in vivo
Conditions: Embodiment III; polypeptide-KLH; value of the whole mix
The answer should be a number; do not append a unit.

Completed entries (count: 5):
>  <Ordered residues>
RLFRKSNLK (SARS-CoV-2) [SEQ ID NO:35]

>  <Quantitative result>
0.5

$$$$
>  <Ordered residues>
SVYAWNRKR (SARS-CoV-2) [SEQ ID NO:3]

>  <Quantitative result>
1

$$$$
>  <Ordered residues>
YGANKDGI (SARS-CoV-2) [SEQ ID NO:21]

>  <Quantitative result>
0.5

$$$$
>  <Ordered residues>
NLDSKVGGNYNY [SEQ ID NO:15]

>  <Quantitative result>
0.5

$$$$
>  <Ordered residues>
DYNYKLPDD (SARS-CoV-2) [SEQ ID NO:11]

>  <Quantitative result>
1

$$$$

Prompt: Provide measured C: Timing-sequence response and specificity score on Balb/c mice for SNLKPFER (SARS-CoV-2) [SEQ ID NO:36] please.
Completion: 0.5

* * *

Test system: Balb/c mice
Assay: Polypeptide chip-based vaccine immunogenicity scoring system
Type: in vivo
Details: adjuvant MA103A; 7 peptides co-immunized in mice
Label TRUE when Total single peptide is at or above 20; otherwise label FALSE.

Use these answered entries as a reference point.
>  <Ordered residues>
SNLKPFER (SARS-CoV-2) [SEQ ID NO:36]

>  <Label>
FALSE

$$$$
>  <Ordered residues>
SVYAWNRKR (SARS-CoV-2) [SEQ ID NO:3]

>  <Label>
TRUE

$$$$
>  <Ordered residues>
KLDDKDPNFK (SARS-CoV-2) [SEQ ID NO:20]

>  <Label>
FALSE

$$$$
>  <Ordered residues>
YGANKDGI (SARS-CoV-2) [SEQ ID NO:21]

>  <Label>
FALSE

$$$$

Prompt: Given LQDLKWARFPKS [SEQ ID NO:29] , state whether its Total single peptide is at least 20.
Completion: TRUE

* * *

Test system: Balb/c mice
Experiment: Polypeptide chip-based vaccine immunogenicity scoring system
Format: in vivo
Conditions: adjuvant AddaVax; 7 peptides co-immunized in mice
Parameter: 2) Mouse performance B. Scope: all listed entries.

Completed entries (count: 5):
>  <Ordered residues>
MEVTPSGTWLTY (SARS-CoV-2) [SEQ ID NO:22]

>  <Result>
2.9

$$$$
>  <Ordered residues>
SVYAWNRKR (SARS-CoV-2) [SEQ ID NO:3]

>  <Result>
3.5

$$$$
>  <Ordered residues>
VYDPLQPEL (SARS-CoV-2) [SEQ ID NO:34]

>  <Result>
2.4

$$$$
>  <Ordered residues>
KLDDKDPNFK (SARS-CoV-2) [SEQ ID NO:20]

>  <Result>
1.5

$$$$
>  <Ordered residues>
LQDLKWARFPKS [SEQ ID NO:29]

>  <Result>
3.5

$$$$

Prompt: Retrieve 2) Mouse performance B measured for YGANKDGI (SARS-CoV-2) [SEQ ID NO:21] and print it.
Completion: 2.6

Prompt: Retrieve 2) Mouse performance B measured for SNLKPFER (SARS-CoV-2) [SEQ ID NO:36] and print it.
Completion: 2.5

* * *

Tested on: Balb/c mice
Assay: Polypeptide chip-based vaccine immunogenicity scoring system
Type: in vivo
Details: adjuvant AddaVax; 7 peptides co-immunized in mice
Measurement name: Total single peptide
The answer should be a number; do not append a unit.

Completed entries (count: 5):
>  <Ordered residues>
SNLKPFER (SARS-CoV-2) [SEQ ID NO:36]

>  <Total single peptide>
15.5

$$$$
>  <Ordered residues>
KLDDKDPNFK (SARS-CoV-2) [SEQ ID NO:20]

>  <Total single peptide>
3

$$$$
>  <Ordered residues>
MEVTPSGTWLTY (SARS-CoV-2) [SEQ ID NO:22]

>  <Total single peptide>
17.8

$$$$
>  <Ordered residues>
LQDLKWARFPKS [SEQ ID NO:29]

>  <Total single peptide>
19

$$$$
>  <Ordered residues>
SVYAWNRKR (SARS-CoV-2) [SEQ ID NO:3]

>  <Total single peptide>
19

$$$$

Prompt: Retrieve Total single peptide measured for YGANKDGI (SARS-CoV-2) [SEQ ID NO:21] and print it.
Completion: 15.7

Prompt: Retrieve Total single peptide measured for VYDPLQPEL (SARS-CoV-2) [SEQ ID NO:34] and print it.
Completion: 15.3

* * *

System: Balb/c mice
Test: Polypeptide chip-based vaccine immunogenicity scoring system
Format: in vivo
Conditions: adjuvant AddaVax; 7 peptides co-immunized in mice
Parameter: 1) 95 percentile grouping number A. Scope: all listed entries.
The answer should be a number; do not append a unit.

Completed entries (count: 3):
>  <Ordered residues>
SNLKPFER (SARS-CoV-2) [SEQ ID NO:36]

>  <Quantitative result>
3.5

$$$$
>  <Ordered residues>
KLDDKDPNFK (SARS-CoV-2) [SEQ ID NO:20]

>  <Quantitative result>
0

$$$$
>  <Ordered residues>
LQDLKWARFPKS [SEQ ID NO:29]

>  <Quantitative result>
4

$$$$

Prompt: Retrieve 1) 95 percentile grouping number A measured for VYDPLQPEL (SARS-CoV-2) [SEQ ID NO:34] and print it.
Completion: 3.5

Prompt: Retrieve 1) 95 percentile grouping number A measured for YGANKDGI (SARS-CoV-2) [SEQ ID NO:21] and print it.
Completion: 3.5

Prompt: Retrieve 1) 95 percentile grouping number A measured for SVYAWNRKR (SARS-CoV-2) [SEQ ID NO:3] and print it.
Completion: 4

Prompt: Retrieve 1) 95 percentile grouping number A measured for MEVTPSGTWLTY (SARS-CoV-2) [SEQ ID NO:22] and print it.
Completion: 4

* * *

Tested on: Balb/c mice
Assay: Polypeptide chip-based vaccine immunogenicity scoring system
Format: in vivo
Conditions: Embodiment III; polypeptide-KLH; value of the whole mix
Measurement name: C: Timing-sequence response and specificity score
The answer should be a number; do not append a unit.

Completed entries (count: 8):
>  <Ordered residues>
DNQDLNGNWY (SARS-CoV-2) [SEQ ID NO:31]

>  <System tested>
Balb/c mice

>  <Quantitative result>
0.5

$$$$
>  <Ordered residues>
QELGKYEQY (SARS-CoV-2) [SEQ ID NO:38]

>  <System tested>
Balb/c mice

>  <Quantitative result>
0.5

$$$$
>  <Ordered residues>
YYKKDNSYF (SARS-CoV-2) [SEQ ID NO:25]

>  <System tested>
Balb/c mice

>  <Quantitative result>
1

$$$$
>  <Ordered residues>
KLDNYYKKDNSY (SARS-CoV-2) [SEQ ID NO:32]

>  <System tested>
Balb/c mice

>  <Quantitative result>
1

$$$$
>  <Ordered residues>
GTITVEELKK (SARS-CoV-2) [SEQ ID NO:39]

>  <System tested>
Balb/c mice

>  <Quantitative result>
0.5

$$$$
>  <Ordered residues>
HGKEDLKF (SARS-CoV-2) [SEQ ID NO:23]

>  <System tested>
Balb/c mice

>  <Quantitative result>
1

$$$$
>  <Ordered residues>
DSFKEELDKY (SARS-CoV-2) [SEQ ID NO:33]

>  <System tested>
Balb/c mice

>  <Quantitative result>
1

$$$$
>  <Ordered residues>
KVFRSSVLHSTQ [SEQ ID NO:6]

>  <System tested>
Balb/c mice

>  <Quantitative result>
0.5

$$$$

Prompt: Retrieve C: Timing-sequence response and specificity score measured for ETSNSFDVLKSE [SEQ ID NO:30] and print it.
Completion: 0.5

Prompt: Retrieve C: Timing-sequence response and specificity score measured for YEGNSPFH [SEQ ID NO:18] and print it.
Completion: 0.5

Prompt: Retrieve C: Timing-sequence response and specificity score measured for KEIDRLNEV [SEQ ID NO:12] and print it.
Completion: 0.5

Prompt: Retrieve C: Timing-sequence response and specificity score measured for EVFAQVKQIY (SARS-CoV-2) [SEQ ID NO:13] and print it.
Completion: 0.5

* * *

Tested on: Balb/c mice
Assay: Polypeptide chip-based vaccine immunogenicity scoring system
Format: in vivo
Conditions: adjuvant Adju-Phos; 7 peptides co-immunized in mice
Measurement name: Total single peptide
The answer should be a number; do not append a unit.

Completed entries (count: 6):
>  <Ordered residues>
YGANKDGI (SARS-CoV-2) [SEQ ID NO:21]

>  <System tested>
Balb/c mice

>  <Quantitative result>
17.8

$$$$
>  <Ordered residues>
LQDLKWARFPKS [SEQ ID NO:29]

>  <System tested>
Balb/c mice

>  <Quantitative result>
14.3

$$$$
>  <Ordered residues>
SNLKPFER (SARS-CoV-2) [SEQ ID NO:36]

>  <System tested>
Balb/c mice

>  <Quantitative result>
14.1

$$$$
>  <Ordered residues>
MEVTPSGTWLTY (SARS-CoV-2) [SEQ ID NO:22]

>  <System tested>
Balb/c mice

>  <Quantitative result>
19.2

$$$$
>  <Ordered residues>
KLDDKDPNFK (SARS-CoV-2) [SEQ ID NO:20]

>  <System tested>
Balb/c mice

>  <Quantitative result>
7.3

$$$$
>  <Ordered residues>
SVYAWNRKR (SARS-CoV-2) [SEQ ID NO:3]

>  <System tested>
Balb/c mice

>  <Quantitative result>
16.5

$$$$

Moving on to the next sequence.
Prompt: Retrieve Total single peptide measured for VYDPLQPEL (SARS-CoV-2) [SEQ ID NO:34] and print it.
Completion: 20

Hello, the source for this data is patent US20230136600A1, in case you need it.
